- TARGET_OR_TEST_SYSTEM: GSK3α (Homo sapiens, UniProt P49840)
- Sequence (P49840 whole entry, species assumed): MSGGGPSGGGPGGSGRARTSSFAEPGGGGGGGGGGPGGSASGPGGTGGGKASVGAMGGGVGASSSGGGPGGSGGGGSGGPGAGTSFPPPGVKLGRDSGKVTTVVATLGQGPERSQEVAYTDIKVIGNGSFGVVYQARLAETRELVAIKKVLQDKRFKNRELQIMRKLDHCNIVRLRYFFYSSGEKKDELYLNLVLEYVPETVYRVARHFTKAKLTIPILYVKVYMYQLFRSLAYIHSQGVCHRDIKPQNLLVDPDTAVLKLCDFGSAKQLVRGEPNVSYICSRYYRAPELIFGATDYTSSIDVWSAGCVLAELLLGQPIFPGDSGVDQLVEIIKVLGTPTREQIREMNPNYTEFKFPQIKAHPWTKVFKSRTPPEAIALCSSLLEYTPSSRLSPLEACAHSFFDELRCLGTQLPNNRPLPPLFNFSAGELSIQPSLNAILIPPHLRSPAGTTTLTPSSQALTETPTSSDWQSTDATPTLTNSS
pIC50: −log10 of the molar value.
Decision: pIC50 compared against 9; not below it gives MET, below it gives NOT MET.

• O=C(Nc1cnccc1-c1ccccc1)c1ccnc(Nc2ccccc2)n1 = MET
• CC1(CNc2nccc(C(=O)Nc3cncnc3OCC(F)(F)F)n2)COC1 = NOT MET
• O=C(Nc1cnccc1-c1ccccc1)c1ccnc(NC2CCCOC2)n1 (centres unmarked) = NOT MET
• O=C(Nc1cnccc1-c1ccccc1)c1ccnc(Nc2cc(OC(F)F)c(Cl)cc2F)n1 = NOT MET
• O=C(Nc1cncnc1)c1ccnc(Nc2cccc(-c3ccccc3)c2)n1 = NOT MET
• O=C(Nc1cnccc1-c1ccccc1)c1ccnc(Nc2ccc(OC(F)F)cc2)n1 = MET
• O=C(Nc1cnccc1OCC(F)(F)F)c1ccnc(Nc2ccc3cccnc3c2)n1 = MET
• Cc1cc(C#N)ccc1Nc1nccc(C(=O)Nc2cnccc2-c2ccccc2)n1 = MET
• O=C(Nc1cncnc1)c1ccnc(N[C@H]2C[C@@H]2c2ccccc2)n1 = NOT MET
• O=C(Nc1cnc(F)cc1N1CCC(F)(F)CC1)c1ccnc(NC2CCOCC2)n1 = NOT MET
• O=C(Nc1cnccc1-c1ccccc1)c1ccnc(Nc2cc(Cl)c(Cl)cc2F)n1 = MET
• O=C(Nc1cnc(F)cc1N1CCC(F)(F)CC1)c1ccnc(Nc2ccccc2)n1 = MET
